I'd be grateful if you could share measured variant/HC_D62R for these entries.
- tested_on: T1, human tissue factor pathway inhibitor (TFPI) (human, UniProt P10646 29-304, limits assumed)
- T1 construct: bought; also called hTFPI; human TFPI
- T1 sequence (looked up): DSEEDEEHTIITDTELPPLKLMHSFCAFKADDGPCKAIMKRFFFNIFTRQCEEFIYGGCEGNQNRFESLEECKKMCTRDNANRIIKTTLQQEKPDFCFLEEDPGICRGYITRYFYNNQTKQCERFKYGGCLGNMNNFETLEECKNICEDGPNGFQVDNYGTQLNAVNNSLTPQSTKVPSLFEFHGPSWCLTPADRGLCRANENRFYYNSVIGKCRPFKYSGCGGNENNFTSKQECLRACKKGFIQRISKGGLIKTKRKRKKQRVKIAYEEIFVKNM
- assay_comment: competitive ELISA
Answers are plain numbers, in ratio.

{"columns": ["binder", "variant/HC_D62R [ratio]"],
 "data": [
  ["gB9.7 (4B7 HC Q1E+N32D+G44S+K55Y+D62R+Y112D/LC S32R+N35I) (Fab, V domains shown) VH: EVQLQQSGPGLVKPSQTLSLTCAISGDSVSSDSAAWSWIRQSPSRGLEWLGIIYYRSKWYNRYAVSVKSRITINPDTSKNQFSLQLNSVTPEDTAVYYCARWHSDKHWGFDDWGQGTLVTVSS VL: DIVMTQSPLSLPVTPGEPASISCRSSQSLVFRDGITYLNWYLQKPGQSPQLLIYKGSNRASGVPDRFSGSGSGTDFTLKISRVEAEDVGVYYCQQYDSYPLTFGQGTKVEIKR", 22.6],
  ["4B7 HC N32D+D62R+H107M+Y112D/LC F31M+D33R (Fab, V domains shown) VH: QVQLQQSGPGLVKPSQTLSLTCAISGDSVSSDSAAWSWIRQSPGRGLEWLGIIYKRSKWYNRYAVSVKSRITINPDTSKNQFSLQLNSVTPEDTAVYYCARWHSDKMWGFDDWGQGTLVTVSS VL: DIVMTQSPLSLPVTPGEPASISCRSSQSLVMSRGNTYLNWYLQKPGQSPQLLIYKGSNRASGVPDRFSGSGSGTDFTLKISRVEAEDVGVYYCQQYDSYPLTFGQGTKVEIKR", 26.9]
]}

Please look at the following binder next.
Input B18.5 (4B7 HC N32D+D62Q+Y112D/LC F31I+D33F+N35I) (Fab, V domains shown) VH: QVQLQQSGPGLVKPSQTLSLTCAISGDSVSSDSAAWSWIRQSPGRGLEWLGIIYKRSKWYNQYAVSVKSRITINPDTSKNQFSLQLNSVTPEDTAVYYCARWHSDKHWGFDDWGQGTLVTVSS VL: DIVMTQSPLSLPVTPGEPASISCRSSQSLVISFGITYLNWYLQKPGQSPQLLIYKGSNRASGVPDRFSGSGSGTDFTLKISRVEAEDVGVYYCQQYDSYPLTFGQGTKVEIKR . Output variant/HC_D62R: 22.4
